Record form. Attribute: Ki. Fill in for each entry.
# TESTED_ON: rat OX2R (Rattus norvegicus)
# Sequence (P56719 1-460): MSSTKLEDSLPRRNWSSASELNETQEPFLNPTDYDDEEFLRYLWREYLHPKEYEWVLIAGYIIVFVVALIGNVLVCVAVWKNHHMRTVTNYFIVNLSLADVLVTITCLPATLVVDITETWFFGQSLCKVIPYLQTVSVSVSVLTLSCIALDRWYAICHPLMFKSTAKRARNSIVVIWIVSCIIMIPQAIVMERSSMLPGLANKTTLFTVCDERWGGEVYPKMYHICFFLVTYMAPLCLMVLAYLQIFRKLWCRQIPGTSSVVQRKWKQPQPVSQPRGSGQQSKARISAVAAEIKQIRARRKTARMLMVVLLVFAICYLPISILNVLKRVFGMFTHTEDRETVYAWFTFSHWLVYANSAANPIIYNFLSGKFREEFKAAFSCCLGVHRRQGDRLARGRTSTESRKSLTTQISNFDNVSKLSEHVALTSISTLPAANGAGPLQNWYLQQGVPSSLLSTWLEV
# ASSAY_METHOD_TEXT: FLIPR orexin A-stimulated calcium accumulation, rat OX2R
# Format: cell-based
# STATED_CONDITIONS: HEK cells, antagonist incubation 4 h, read-out: pKi (converted)
Quick reminder: number only, in nM, skip the unit.

Task item: Reported Ki, compound Cc1nc(C(=O)N2CCCC[C@H]2CNC(=O)c2cccc3occc23)c(-c2ccc(F)cc2)s1 [SB-649868] : ____
Reply: 0.141

Task item: Cool, now Cc1ccc(-c2ncccn2)c(C(=O)N2C[C@H](COc3ccc(F)cn3)CC[C@H]2C)c1 [Filorexant]
Reply: 0.178

Task item: Cool, now CNC(=O)[C@@H](c1ccccc1)N1CCc2cc(OC)c(OC)cc2[C@@H]1CCc1ccc(C(F)(F)F)cc1 [Almorexant]
Reply: 0.661

Task item: Cool, now COc1ccnc(N2CCC3(CCCN(Cc4c[nH]c5ccccc45)C3=O)CC2)n1 [IPSU]
Reply: 28.2
